From: PubChem BioAssay

Test: viability loss with induced miR-34 in A549 – imaging, A549 dox-inducible miR-34, nuclei and caspase counts, primary screen (AID 1347080)
Details: A549 miR-34 inducible, Hoechst nuclei count, 48 h; measured here: total cells with miR-34 induction; stronger effect = lower value
Each entry below lists one item and its recorded cell count value.
No unit in the answer, only the number.

Some solved entries appear below for comparison.
molecule=Cc1cc(=O)oc2c(C=O)c(O)ccc12 reported=8210
molecule=Cc1nc(C)c(-c2ccnc(N)n2)s1 reported=8060
molecule=Cc1nn(C)c(C)c1-c1ccnc(N(C)Cc2cc(-c3ccccn3)no2)n1 reported=6820
molecule=O[C@H]1[C@H](O)[C@@H](O)[C@@H]2O[C@@H]2[C@@H]1O reported=9740
molecule="CCc1cc2c(cc1CC)CC(NCC(O)c1ccc(O)c3[nH]c(=O)ccc13)C2 (stereo not drawn)" reported=7460
molecule="CC(NC(=O)C(Cc1ccccc1)NC(=O)OCc1ccccc1)C(=O)CF (stereo not drawn)" reported=8780

The molecule identified as CCc1cccc2c3c([nH]c12)[C@](CC)(CC(=O)O)OCC3 registered its cell count at 7980

Memo: CN(C)c1cc(NC(=O)CNC(C)(C)C)c(O)c2c1C[C@H]1C[C@H]3C(N(C)C)C(=O)C(C(N)=O)=C(O)[C@@]3(O)C(=O)C1=C2O (stereo partly drawn) , reported cell count: 8200

Summary for this molecule, CC(C)COC(=O)OCN1C(=O)CN(CCN2CC(=O)N(COC(=O)OCC(C)C)C(=O)C2)CC1=O : cell count is 8180

So, O=C(COc1ccc(C(=O)c2ccccc2)cc1)NC1CCN(Cc2ccccc2)CC1 ? Its cell count was 6930

Per the records, this molecule ( CCc1c2c(nc3ccc(OC(=O)N4CCC(N5CCCCC5)CC4)cc13)-c1cc3c(c(=O)n1C2)COC(=O)[C@@]3(O)CC ) has cell count equal to 2060

In plain terms, CC1O[C@@H](OC2C(Oc3cc(O)c(C(=O)CCc4ccc(O)cc4)c(O)c3)OC(CO)C(O)C2O)C(O)C(O)C1O (stereo partly drawn) has a documented cell count of 8080

Reported cell count ( CC1COC(Nc2ccc3ncnc(Nc4ccc(OCc5nccs5)c(Cl)c4)c3c2)=N1 (stereo not drawn) ) = 6940

Sure, the documented cell count for COc1cc(CNC(=O)CCCCC=CC(C)C)ccc1O is 9660

The molecule identified as C[C@@]12C(=O)N(c3ccc(C(=O)Nc4cccc5cccnc45)cc3)C(=O)[C@@H]1C1C=CC2C1 (stereo partly drawn) registered its cell count at 7280

The reported value for S=c1[nH]c(-c2ccccc2)cn1-c1ccccc1 in terms of cell count is 9110

Notebook: O=S(=O)(O)CCCN1CCOCC1 , cell count read as 8750

For Fc1cccc(F)c1-c1nc2c(cnn2Cc2cccs2)[nH]1 the molecule record lists cell count as 8590

Measured cell count, Cc1nsc(NC(=O)N2CCCCC2c2nc(C(C)C)no2)n1 (stereo not drawn) : 9100

Sure, the documented cell count for CCn1nccc1NC(=O)Cn1cc(-c2ccc(C(=O)N3CCCC3)cn2)cn1 is 7850

Record CN1[C@@H](C[C@H](O)c2ccccc2)CCC[C@H]1CC(=O)c1ccccc1 , field cell count: 9500

Record Cc1csc2ncnc(-c3cccc4cccnc34)c12 . Reported cell count: 8530

---

Assay: compounds altering circadian rhythm period length – cell-based, LOPAC library, luminescence reporter (AID 2774);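 note: values are relative to mean of DMSO wells on each plate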
Conditions: circadian reporter cells, at 7 µM, actives lie on both sides
The source made the active and inactive calls. How the calls were made is not given here.
reported property: period change

Use these answered entries as a reference point.
molecule="CC(O)C(O)[C@H]1CNc2nc(N)[nH]c(=O)c2N1 (stereo partly drawn)" reported="-0.26 h (inactive)"
molecule=NC1(C(=O)O)CCCCC1 reported="-0.115 h (inactive)"
molecule=COc1ccccc1N1CCN(CCCCNS(=O)(=O)c2cccc3c(N(C)C)cccc23)CC1 reported="0.125 h (inactive)"
molecule=C[C@@H](Oc1ccc(Oc2cnc3ccc(Cl)cc3n2)cc1)C(=O)O reported="-0.01 h (inactive)"
molecule="CCCCCCCCCCCCCCCC(=O)NCC(COP(=O)([O-])OCC[N+](C)(C)C)OCC (stereo not drawn)" reported="-0.285 h (inactive)"
molecule="NC(=S)c1ccc[n+]([C@@H]2O[C@@H](COP(=O)([O-])OP(=O)(O)OC[C@H]3O[C@@H](n4cnc5c(N)ncnc54)C(OP(=O)(O)O)[C@H]3O)C(O)C2O)c1 (stereo partly drawn)" reported="0.055 h (inactive)"

Record COC(=O)c1c(-c2cc(OC)c(OC)c(OC)c2)c2ccc(OCc3ccccn3)cc2c(=O)n1-c1ccc(N)cc1 . Reported period change: 0.015 h (inactive)

Entry under test: COc1cc2c(cc1OC)[C@@H](c1ccccc1)CN(C)CC2 . Its period change was 0 h (inactive)

Reported period change of O=C(O)Cc1c[nH]c2ccc(O)cc12 : -0.095 h (inactive)

Consider COc1ccccc1NC(=O)Nc1nc(-c2cccnc2)nc2ccccc12 . Its measured period change is -0.005 h (inactive)

Noted for C[C@@H](NC(=O)/C(C#N)=C/c1ccc(O)c(O)c1)c1ccccc1 : its period change reads 0.095 h (inactive)

---

Test: viability loss with induced miR-34 in A549 – imaging, A549 dox-inducible miR-34, nuclei and caspase counts, primary screen (AID 1347080)
Conditions: A549 miR-34 inducible, Hoechst nuclei count, 48 h; measured here: total cells without miR-34 induction
reported property: cell count
Provide a numeric answer; units are not to be included.

molecule=O=c1[nH]cnc2c1CN=N2 reported_property="cell count" reported=11100
molecule=NC1(C(=O)O)CCCCC1 reported_property="cell count" reported=10900
molecule="CCC(C)(C)C(=O)OC1CC(C)C=C2C=CC(C)C(CC[C@@H]3CC(O)CC(=O)O3)[C@H]21 (some centres undefined)" reported_property="cell count" reported=2220

Proceeding to the next molecule to report its cell count.
Please fill in: cell count reported for Cc1csc(CNc2nccc(-c3cnn(-c4ccccc4)c3)n2)n1 = 5870

---

Assay: viability loss with induced miR-34 in A549 – imaging, A549 dox-inducible miR-34, nuclei and caspase counts, primary screen (AID 1347080)
Details: A549 miR-34 inducible, Hoechst nuclei count, 48 h; measured here: total cells without miR-34 induction
reported property: cell count

Guide cases for cell count, answers given:
compound=NC/C=C\C(=O)O reported_property="cell count" reported=9050
compound=O=C1NC(=O)C(=Cc2ccc3c(c2)OC(F)(F)O3)S1 reported_property="cell count" reported=9790
compound=OCCCc1cn(CC2CCN(c3ncnc4nc[nH]c34)CC2)nn1 reported_property="cell count" reported=9200

Would you kindly look at the next entry?
Short answer for O=C(O)C1=COC(OC2OC(CO)C(O)C(O)C2O)[C@@H]2C(CO)=CC[C@H]12 (some centres undefined) : cell count was 10300

---

Assay: CRL1545 cell growth, single agent and combined, cisplatin and BGB IC20 combos (AID 1671464);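 note: cells exposed to compound for 96 hours before readout; 0% = vehicle DMSO and 100% = high DMSO killing control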
Conditions: CRL1545 osteosarcoma cells, at 0.5 µM, stronger effect = higher value
reported property: inhibition (%)
Give your result in % as a bare value.

molecule="CC1OC(CC(=O)O)CC2=C1C(=O)c1c(O)cccc1C2=O (stereo not drawn)" reported_property=inhibition reported=99.9

The molecule O=c1cc(-c2ccc(O)cc2)[nH]c(=S)[nH]1 showed inhibition equal to -18.8

Data point: Cc1c(Br)cc(NCC(=O)N/N=C/c2cc([N+](=O)[O-])ccc2O)cc1Br ; inhibition = -4.87

---

Each entry below carries its reported cell count.
Experiment: viability loss with induced miR-34 in A549 – imaging, A549 dox-inducible miR-34, nuclei and caspase counts, primary screen (AID 1347080)
Conditions: A549 miR-34 inducible, Hoechst nuclei count, 48 h; measured here: total cells with miR-34 induction; stronger effect = lower value

compound="COC1C(=O)[C@]2(C)C(OC)C[C@H]3OC[C@@]3(OC(C)=O)[C@H]2C(OC(=O)c2ccccc2)[C@@]2(O)CC(OC(=O)C(O)C(NC(=O)OC(C)(C)C)c3ccccc3)C(C)=C1C2(C)C (some centres undefined)" reported=2690
compound=CS(=O)(=O)c1ccc(-n2nc(C(F)(F)F)cc2-c2ccc(F)cc2)cc1 reported=9270
compound=CCNc1nc2c(ncn2[C@H]2C[C@H](O)[C@@H](CO)O2)c(=O)[nH]1 reported=9970
compound=CC(C)(C)[N+]([O-])=Cc1ccc(S(=O)(=O)O)cc1S(=O)(=O)O reported=9880
compound=CC(=CC(=O)Nc1ccccc1C(=O)O)c1ccc2ccccc2c1 reported=7300
compound=O=C(O)c1ccc(-c2ccccc2[N+](=O)[O-])o1 reported=8650
compound="CCC[C@@H]1OC2C[C@H]3[C@@H]4CCC5=CC(=O)C=C[C@]5(C)[C@@H]4C(O)C[C@]3(C)[C@@]2(C(=O)CO)O1 (some centres undefined)" reported=3350
compound="CCCCC/C=C\\C/C=C\\C/C=C\\CC1OC1CCCC(=O)O (centres undefined)" reported=5900

Reported cell count of O=C(O)C=Cc1ccccc1O : 8740

Memo: O=C(Nc1n[nH]c(-c2ccccc2)n1)N1CCN(c2ccc(F)cc2)CC1 , reported cell count: 6770
